Target: Heat shock protein HSP90 (Homo sapiens, UniProt P07900+P08238)
Conditions: mcf7
Description: Binding affinity to human recombinant HSP90 in MCF7 cell lysates assessed as inhibition of biotinylated-geldanamycin binding
Parameter: IC50. Scope: all listed entries.
State the answer as a number, implicitly in nM.

> print(dat)
                               smiles.input                           measured.target  parameter  quantity.unit  measured.number
1     Cc1cnc(Cn2cnc3c(Cl)nc(N)nc32)c(C)c1Cl  Heat shock protein HSP90 (Homo sapiens, UniProt P07900+P08238)       IC50             nM               10
2  COc1c(C)ncc(Cn2cnc3c(Cl)nc(N)nc32)c1C.Cl  Heat shock protein HSP90 (Homo sapiens, UniProt P07900+P08238)       IC50             nM               18
3  COc1c(C)c[n+]([O-])c(Cn2cnc3c(Cl)nc(N)nc32)c1C  Heat shock protein HSP90 (Homo sapiens, UniProt P07900+P08238)       IC50             nM               30

Param readout = IC50; param system = Heat shock protein HSP90 (Homo sapiens, UniProt P07900+P08238); param query = Cc1cnc(Cn2cnc3c(Cl)nc(N)nc32)c(C)c1 ; response: value 4000

----------
Assay: Tmax in BALB/c mouse at 100 mg/kg, po
Type: ADME, organism-based
Design: dose 100 mg/kg, route oral
Details: in vivo
PARAMETER: Tmax (min)
Please state the figure in min; there is no need to write the unit.

> print(dat)
                               smiles.input  quantity.unit  measured.number
1  COc1c(C)ncc(Cn2cnc3c(Cl)nc(N)nc32)c1C.Cl            min                6

Then there is this compound:
Name the recorded Tmax for COc1c(C)cnc(Cn2cnc3c(Cl)nc(N)nc32)c1C.Cl . 6

----------
System: RPTEC
Test: Selectivity index, ratio of IC50 for human RPTEC cells to IC50 for MCF7 cells
Assay type: functional, cell-based
PARAMETER: selectivity index
// no unit string in output, number only

Answered examples (3):
> print(dat)
                               smiles.input  measured.number
1      Cc1cnc(Cn2cnc3c(Cl)nc(N)nc32)c(C)c1I                5
2  COc1c(C)cnc(Cn2cnc3c(Cl)nc(N)nc32)c1C.Cl                6
3     Cc1cnc(Cn2cnc3c(Cl)nc(N)nc32)c(C)c1Br               43

May I ask what selectivity index has been recorded for Cc1cnc(Cn2cnc3c(Cl)nc(N)nc32)c(C)c1Cl ? 50

# iterate: CSc1c(C)cnc(Cn2cnc3c(Cl)nc(N)nc32)c1C 5

----------
Assay: Solubility in simulated gastric fluid at pH 2.0
Type: physicochemical
PARAMETER: solubility (µg/mL)
Provide only the numeric value, understood in µg/mL.

Any idea what solubility was measured for COc1c(C)cnc(Cn2cnc3c(Cl)nc(N)nc32)c1C.Cl ? 240

Let us now turn to COc1c(C)ncc(Cn2cnc3c(Cl)nc(N)nc32)c1C.Cl 451

----------
Tested on: HT-29
Test: Antiproliferative activity against human HT29 cells
Format: functional, cell-based
PARAMETER: pIC50
Scale note: pIC50 = -log10(concentration in M).

Fill blank: measured pIC50 of the compound C=CCNC1=C2C[C@@H](C)C[C@H](OC)[C@H](O)[C@@H](C)/C=C(\C)[C@H](OC(N)=O)[C@@H](OC)/C=C\C=C(/C)C(=O)NC(=CC1=O)C2=O [TANESPIMYCIN] is ____. 8.70

----------
Catalogue of IC50 values
Target: Heat shock protein HSP90 (Homo sapiens, UniProt P07900+P08238)
Details: mcf7
Description: Inhibition of human recombinant HSP90 in MCF7 cells assessed as Her2 degradation
A complete answer gives the number and then names the unit.

Item Cc1cnc(Cn2cnc3c(Cl)nc(N)nc32)c(C)c1[N+](=O)[O-] with Heat shock protein HSP90 (Homo sapiens, UniProt P07900+P08238) - IC50? 1000 nM

// next record COc1cc(Cn2cnc3c(O)nc(N)nc32)c(Cl)c(OC)c1OC 700 nM

Further, for CSc1c(C)cnc(Cn2cnc3c(Cl)nc(N)nc32)c1C ? 27 nM

Consider next the compound COc1cc(Cn2cnc3c(S)nc(N)nc32)c(Br)c(OC)c1OC in the same way. 100000 nM

COc1cc(Cn2cnc3c(Cl)nc(N)nc32)c(Cl)c(OC)c1OC ? 50 nM

What do you have for Cc1cnc(Cn2cnc3c(Cl)nc(N)nc32)c(C)c1O ? 100000 nM

----------
Assay: AUC in BALB/c mouse at 100 mg/kg, po
Type: ADME, organism-based
Design: dose 100 mg/kg, route oral
Conditions: plasma
# AUC per record follows
Write the number in ng·h/mL without appending the unit.

> print(dat)
                               smiles.input  measured.number
1  COc1c(C)cnc(Cn2cnc3c(Cl)nc(N)nc32)c1C.Cl             4800

Which value of AUC has been reported for COc1c(C)ncc(Cn2cnc3c(Cl)nc(N)nc32)c1C.Cl in the records? 9000

----------
Molecular target: Heat shock protein HSP90 (Homo sapiens, UniProt P07900+P08238)
Conditions: mcf7
PARAMETER: IC50 (nM)
Please state the figure in nM; there is no need to write the unit.

> print(dat)
                                   compound  measured.number
1  COc1c(C)c(Cl)nc(Cn2cnc3c(Cl)nc(N)nc32)c1C               25

Reported IC50 for Heat shock protein HSP90 (Homo sapiens, UniProt P07900+P08238), given Cc1cnc(Cn2cnc3c(Cl)nc(N)nc32)c(C)c1I ? 3

Next: Cc1cnc(Cn2cnc3c(Cl)nc(N)nc32)c(C)c1C 35

Moving on to CSc1c(C)cnc(Cn2cnc3c(Cl)nc(N)nc32)c1C 40

Another: Cc1cnc(Cn2cnc3c(Cl)nc(N)nc32)c(C)c1Br 2

Further, for Cc1cnc(Cn2cnc3c(Cl)nc(N)nc32)c(C)c1[S+](C)[O-] (stereo unspecified) ? 10000

----------
# reported log10 of IC50; entries follow
Target: Heat shock protein HSP90 (Homo sapiens, UniProt P07900+P08238)
Conditions: mcf7
Transform log10 | Measure IC50 | Unit µM

// known answers, use as guide
> print(dat)
                            smiles.input      parameter  measured.number
1  COc1ccc(OC)c(Cn2cnc3c(Cl)nc(N)nc32)c1  log10 of IC50             0.48
2   Cc1cnc(Cn2cnc3c(Cl)nc(N)nc32)c(C)c1N  log10 of IC50             0.76

Return reported log10 of IC50; argument: COc1cc(Cn2cnc3c(Br)nc(N)nc32)c(Br)c(OC)c1OC -1.26

Follow-up entry: COc1cc(Cn2cnc3c(N)nc(N)nc32)c(Br)c(OC)c1OC 1.23

Now give it for Cc1cnc(Cn2cnc3c(Cl)nc(N)nc32)c(C)c1 too. 0.88

----------
Experiment: Solubility in mouse serum at pH 7.4
Assay type: ADME, cell-free
PARAMETER: solubility (µg/mL)
The answer is to be given in µg/mL; state only the numeric part.

> print(dat)
                               smiles.input  measured.number
1  COc1c(C)ncc(Cn2cnc3c(Cl)nc(N)nc32)c1C.Cl              186

Which solubility is listed for COc1c(C)cnc(Cn2cnc3c(Cl)nc(N)nc32)c1C.Cl ? 176

----------
Experiment: Aqueous solubility of the compound
Format: physicochemical
Settings: aqueous medium
PARAMETER: solubility

Given the entry COc1cc(Cn2cnc3c(Cl)nc(N)nc32)c(Cl)c(OC)c1OC , report its measured solubility. < 1 µg/mL

----------
Let's look at some molecules and their measured selectivity index.
System: RPTEC
Assay: Selectivity index, ratio of IC50 for human RPTEC cells to IC50 for HT29 cells
Assay type: functional, cell-based
Quick one: just the number, no unit, thanks!

// solved cases for selectivity index follow
> print(dat)
                            smiles.input  measured.number
1  CSc1c(C)cnc(Cn2cnc3c(Cl)nc(N)nc32)c1C               12
2  Cc1cnc(Cn2cnc3c(Cl)nc(N)nc32)c(C)c1Br               10
3   Cc1cnc(Cn2cnc3c(Cl)nc(N)nc32)c(C)c1I                7

Data request, read-out selectivity index, for Cc1cnc(Cn2cnc3c(Cl)nc(N)nc32)c(C)c1Cl 10

How about COc1c(C)cnc(Cn2cnc3c(Cl)nc(N)nc32)c1C.Cl ? 5
